- Test Details: Cynomolgus monkeys: hematology assays (Example 29)
- Format: in vivo
- Assay Context: day 50
In the oligonucleotide strings, read from the 5' end, every base follows the letter of its sugar. An asterisk marks phosphorothioate; unmarked linkages are phosphodiester. Other units and linkages are bracketed, terminal groups are in braces. A string of capitals states the bases alone. e = 2'-O-(2-methoxyethyl) (MOE); [5mC] = 5-methylcytosine; d = 2'-deoxy (DNA)
Quantity Measured: platelet count (µL⁻¹)
Number in µL⁻¹, nothing else.

| Substance | platelet count, µL⁻¹ |
| --- | --- |
| ISIS 416858: gapmer of Table 8 (antisense eA*e[5mC]*eG*eG*e[5mC]*dA*dT*dT*dG*dG*dT*dG*d[5mC]*dA*d[5mC]*eA*eG*eT*eT*eT) | 331000 |
| ISIS 417002: gapmer of Table 8 (antisense eG*eG*dT*dG*d[5mC]*dA*d[5mC]*dA*dG*dT*dT*dT*d[5mC]*dT*dG*eG*e[5mC]*eA*eG*eG) | 389000 |
| ISIS 416850: gapmer of Table 8 (antisense eT*eG*e[5mC]*eA*e[5mC]*dA*dG*dT*dT*dT*d[5mC]*dT*dG*dG*d[5mC]*eA*eG*eG*e[5mC]*e[5mC]) | 487000 |
| ISIS 416864: gapmer of Table 8 (antisense eG*eG*e[5mC]*eA*eG*d[5mC]*dG*dG*dA*d[5mC]*dG*dG*d[5mC]*dA*dT*eT*eG*eG*eT*eG) | 419000 |

Turning now to a further substance:
Request: Complete the entry with platelet count for ISIS 416838: gapmer of Table 6 (antisense eG*e[5mC]*eA*eA*e[5mC]*d[5mC]*dG*dG*dG*dA*dT*dG*dA*dT*dG*eA*eG*eT*eG*e[5mC])
Result: 372000

====

Item-by-item account of HCT
- Test Details: Tolerability in Sprague-Dawley rats: hematology assays (Example 23)
- Type: in vivo
- Assay Context: blood
Number in %, nothing else.

See these solved cases before continuing.
| Macromolecule Sequence | HCT (%) |
| --- | --- |
| GCATTGGTGCACAGTTTCTG (antisense; all C 5-methyl, all phosphorothioate, sugars by position not given here; MOE gapmer, 5-10-5) [ISIS 412224, 5-10-5 MOE gapmer] | 42 |
| ACAGTTTCTGGCAGGCCTCG (antisense; all C 5-methyl, all phosphorothioate, sugars by position not given here; MOE gapmer, 5-10-5) [ISIS 412223, 5-10-5 MOE gapmer] | 41 |
| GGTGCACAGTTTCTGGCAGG (all C 5-methyl, all phosphorothioate, sugars by position not given here; MOE gapmer) [ISIS 413481, 5-10-5 MOE gapmer] | 43 |

Request: Complete the entry with HCT for GGACGGCATTGGTGCACAGT (antisense; all C 5-methyl, all phosphorothioate, sugars by position not given here; MOE gapmer, 5-10-5) [ISIS 413482, 5-10-5 MOE gapmer]
Result: 40

Request: Complete the entry with HCT for GCAGCGGACGGCATTGGTGC (antisense; all C 5-methyl, all phosphorothioate, sugars by position not given here; MOE gapmer, 5-10-5) [ISIS 412225, 5-10-5 MOE gapmer]
Result: 42

====

Item-by-item account of Percent inhibition of human Factor XI mRNA levels
- Test system: human Factor XI mRNA
- Test Details: Antisense inhibition in HepG2 cells by microwalk gapmers, 8,000 nM, electroporation (Example 14)
- Format: cell-based
- Assay Context: HepG2 cells, 8,000 nM
In the oligonucleotide strings, read from the 5' end, every base follows the letter of its sugar. An asterisk marks phosphorothioate; unmarked linkages are phosphodiester. Other units and linkages are bracketed, terminal groups are in braces. A string of capitals states the bases alone. e = 2'-O-(2-methoxyethyl) (MOE); [5mC] = 5-methylcytosine; d = 2'-deoxy (DNA)
Number in %, nothing else.

See these solved cases before continuing.
| Substance | Reading Unit | Result Value |
| --- | --- | --- |
| 413481 (antisense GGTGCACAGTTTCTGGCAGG; sugars from the 5' end e5 d10 e5, backbone and methylation of C not given here) [compound 413481] | % | 82 |
| 413482 (antisense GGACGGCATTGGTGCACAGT; sugars from the 5' end e5 d10 e5, backbone and methylation of C not given here) [compound 413482] | % | 88 |
| 416850 (antisense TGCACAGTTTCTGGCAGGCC; 5-10-5 gapmer, wing sugar chemistry not given here, further chemistry not given here) [compound 416850] | % | 91 |
| 445516 (antisense e[5mC]*eT*eG*eG*e[5mC]*eA*dG*d[5mC]*dG*dG*dA*d[5mC]*dG*dG*e[5mC]*eA*eT*eT*eG*eG) [compound 445516] | % | 79 |

Request: Complete the entry with Percent inhibition of human Factor XI mRNA levels for 416851 (antisense GTGCACAGTTTCTGGCAGGC; 5-10-5 gapmer, wing sugar chemistry not given here, further chemistry not given here) [compound 416851]
Result: 89

Each recorded value in this set is attributed to patent US20120083522A1.
